Cited source for all entries: patent US20230399312A1

Biological target: recombinant human ALK5 (TGF-βR1) protein (Homo sapiens, UniProt P36897)
Sequence (P36897 34-503): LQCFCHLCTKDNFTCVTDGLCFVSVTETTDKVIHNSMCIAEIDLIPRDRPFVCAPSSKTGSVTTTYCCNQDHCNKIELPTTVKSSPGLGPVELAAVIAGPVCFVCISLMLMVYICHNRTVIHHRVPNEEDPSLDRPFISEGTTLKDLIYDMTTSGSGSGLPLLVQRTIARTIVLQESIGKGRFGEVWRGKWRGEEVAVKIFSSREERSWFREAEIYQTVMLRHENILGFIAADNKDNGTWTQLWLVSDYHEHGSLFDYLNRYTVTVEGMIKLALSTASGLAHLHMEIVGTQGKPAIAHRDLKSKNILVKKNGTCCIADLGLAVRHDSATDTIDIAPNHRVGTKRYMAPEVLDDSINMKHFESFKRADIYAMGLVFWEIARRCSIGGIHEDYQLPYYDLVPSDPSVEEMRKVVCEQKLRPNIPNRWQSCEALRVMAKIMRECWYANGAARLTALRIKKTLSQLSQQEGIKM
Assay: Biochemical ALK5 (TGF-βR1) assay to measure pKi (LANCE Ultra ULight kinase assay)
Settings: apparent pKi, converted from pIC50 by Cheng-Prusoff
Experimental: The assays were performed in a 384-well plate (24 columns×16 wells/rows). An Echo®550 Liquid Handler (Labcyte) was used to prepare various intermediate concentrations of compounds of the present disclosure in 100% DMSO. […] For dose-response analyses, percent inhibition versus compound concentrations were plotted, and pIC50 values were determined from a 4-parameter robust fit model with GraphPad Prism V5 Software (GraphPad Software, Inc., La Jolla, CA). […]
pKi: −log10 of the molar value.
Would you mind telling me the reported pKi of each entry?

The following compounds have reported results that may help.
Compound	Data value
Cc1cccc(-c2nccc(Nc3ccnc(Nc4cccc(CN5CC6CCC(C5)N6)c4)n3)n2)n1	9.50 to 10.40
Cc1cccc(-c2nccc(Nc3ccnc(Nc4ccc(CN5CCC[C@H](C(=O)OCC6CNC6)C5)cc4)n3)n2)n1	9.50 to 10.40

Go through the list and state pKi for each entry.
1. Cc1cccc(-c2nccc(Nc3ccnc(Nc4ccc(CN5CCC[C@@H](C(=O)O[C@@H]6CCN(C)C6)C5)cc4)n3)n2)n1
2. Cc1cccc(-c2nccc(Nc3ccnc(Nc4cccc(S(=O)(=O)NCCN(C)C)c4)n3)n2)n1
3. Cc1cccc(-c2nccc(Nc3ccnc(Nc4ccc(CN5CCC(C(=O)OCC6CNC6)CC5)cc4)n3)n2)n1
4. Cc1cccc(-c2nccc(Nc3ccnc(Nc4ccc(CN5CCCC(C(=O)OCC6CNC6)C5)cc4)n3)n2)n1 (stereo not shown)
5. Cc1cccc(-c2nccc(Nc3ccnc(Nc4ccc(CN5CCN[C@H](C(=O)O)C5)cc4)n3)n2)n1

9.50 to 10.40
9.50 to 10.40
9.50 to 10.40
9.50 to 10.40
9.50 to 10.40

----------
Would you mind telling me the reported IC50 of each entry?
System: TGF-β-stimulated SMAD3 phosphorylation in BEAS-2B cells
Assay: Cellular ALK5 potency assay, inhibition of TGF-β stimulated pSMAD3 formation in BEAS-2B cells
Format: cell-based
Settings: Homo sapiens, pSMAD3, TGF-β 10 ng/mL, read-out: BEAS2B pIC50 (converted)

Go through the list and state IC50 for each entry.
1. Cc1cccc(-c2nccc(Nc3ccnc(Nc4ccc(NS(=O)(=O)C5CCNCC5)cc4)n3)n2)n1 [Compound 229]
2. Cc1cccc(-c2nccc(Nc3ccnc(Nc4ccc(NS(=O)(=O)c5ccc(C(N)=O)cc5)cc4)n3)n2)n1 [Compound 162]
3. Cc1cccc(-c2nccc(Nc3ccnc(Nc4cncc(CN5CC(C(=O)O)C5)c4)n3)n2)n1 [Compound 603]
4. Cc1cccc(-c2nccc(Nc3ccnc(Nc4ccc(CN5CCC(C(=O)OC6CNC6)C5)cc4)n3)n2)n1 (stereo not shown) [Compound 50]

1: 0.0251 to 0.158 µM; 2: 0.2 to 1.26 µM; 3: 1.58 to 10 µM; 4: 0.0251 to 0.158 µM

----------
Would you mind telling me the reported IC50 of each entry?
Test system: TGF-β-stimulated SMAD3 phosphorylation in BEAS-2B cells
Experiment: Cellular ALK5 potency assay, inhibition of TGF-β stimulated pSMAD3 formation in BEAS-2B cells
Assay type: cell-based
Settings: Homo sapiens, pSMAD3, TGF-β 10 ng/mL, read-out: BEAS2B pIC50 (converted)

The following molecules have reported results that may help.
Molecule	Data value
Cc1cccc(-c2nccc(Nc3ccnc(Nc4cncc(C(=O)O[C@H]5CCNC5)c4)n3)n2)n1	25.1 to 158 nM
Cc1cccc(-c2nccc(Nc3ccnc(Nc4ccc(N5CCN(CC6CCNC6)CC5)cc4)n3)n2)n1 (stereo not shown)	25.1 to 158 nM
COC[C@H]1CN(Cc2ccc(Nc3nccc(Nc4ccnc(-c5cccc(C)n5)n4)n3)cc2)CCN1	25.1 to 158 nM

Note: attention shifts to another entry.
Entry Cc1cccc(-c2nccc(Nc3ccnc(Nc4cnn(CCCN)c4)n3)n2)n1 ; assay system TGF-β-stimulated SMAD3 phosphorylation in BEAS-2B cells; IC50 recorded at 200 to 1260 nM
